Values compiled from patent US11718637B2.

Assay: Cytotoxicity assay in MT-4 cells
Format: cell-based
Settings: human; uninfected MT-4 cells, 5 days incubation, Cell Titer Glo
Description: Compounds were tested in a high-throughput 384-well assay format for their ability to inhibit the replication of HIV-1 (IIIB) in MT-4 cells. […] After 5 days incubation in a humidified and temperature-controlled incubator (37° C.), Cell Titer Glo (Promega) was added to the assay plates and chemiluminescence read using an Envision plate-reader. […]
RECORDED METRIC: CC50 at 5 days (µM)
Numbers only, in µM.

Example results:
C#C[C@]1(COC(=O)CC(C)(C)c2c(C)cc(C)cc2OC(C)=O)O[C@@H](n2cnc3c(N)nc(F)nc32)C[C@@H]1OC(=O)CC(C)(C)c1c(C)cc(C)cc1OC(C)=O [Compound 16] : 15.7
C#C[C@]1(CO)O[C@@H](n2cnc3c(NC(=O)OCCCCCCCCCCCCCCCC)nc(F)nc32)C[C@@H]1O [Compound 3] : 11.8
C#C[C@]1(COC(=O)OCCCCCCCCCCCC)O[C@@H](n2cnc3c(N)nc(F)nc32)C[C@@H]1O [Compound 12] : 17
C#C[C@]1(COC(=O)OCCCCCCCCCCCC)O[C@@H](n2cnc3c(N)nc(F)nc32)C[C@@H]1OC(=O)OCCCCCCCCCCCC [Compound 13] : 5.5
C#C[C@]1(COC(=O)C(C)C)O[C@@H](n2cnc3c(N)nc(F)nc32)C[C@@H]1OC(=O)C(C)C [Compound 1] : 37.3

We next turn to a different compound, shown below.
For C#C[C@]1(CO)O[C@@H](n2cnc3c(NC(=O)OCCCCCCCCCCCCCC)nc(F)nc32)C[C@@H]1O [Compound 2] the compound record lists CC50 at 5 days as 13.4

###

assay: Cytotoxicity assay in MT-4 cells; type: cell-based; conditions: human; uninfected MT-4 cells, 5 days incubation, Cell Titer Glo
RECORDED METRIC: CC50 at 5 days

# example entries with known answers
C#C[C@]1(COC(=O)CCCCCCCCCCCCC)O[C@@H](n2cnc3c(N)nc(F)nc32)C[C@@H]1O : > 20.2 µM
C#C[C@]1(COC(=O)CCCCCCCCCCCCCCCCC)O[C@@H](n2cnc3c(N)nc(F)nc32)C[C@@H]1O : > 41.5 µM
C#C[C@]1(CO)O[C@@H](n2cnc3c(N)nc(F)nc32)C[C@@H]1OC(=O)CCCCCCCCCCCCC : > 23 µM
C#C[C@]1(COC(=O)CCCCCCCCCCCCC)O[C@@H](n2cnc3c(N)nc(F)nc32)C[C@@H]1OC(=O)CCCCCCCCCCCCC : > 50 µM
C#C[C@]1(COC(=O)c2ccccc2COC(=O)CCCCCCCCCCCCCCC)O[C@@H](n2cnc3c(N)nc(F)nc32)C[C@@H]1OC(=O)c1ccccc1COC(=O)CCCCCCCCCCCCCCC : > 50 µM
C#C[C@]1(COC(=O)CCCCCC)O[C@@H](n2cnc3c(N)nc(F)nc32)C[C@@H]1OC(=O)CCCCCC : > 20.9 µM

Please examine the following record next.
Entry `C#C[C@]1(CO)O[C@@H](n2cnc3c(N)nc(F)nc32)C[C@@H]1OC(=O)c1ccccc1COC(=O)CCCCCCCCCCCCCCC` , CC50 at 5 days reported as > 50 µM
